melting point reference

Sample records with melting point:
{"molecule": "Cc1ccc(-c2ccc([N+](=O)[O-])cc2)cc1", "melting point": "197 to 198 °C"}
{"molecule": "Cc1ccc(-c2ccc(Cl)cc2)cn1 [Compound 98]", "melting point": "204 to 206 °C"}
{"molecule": "CNC(=O)COC(=O)N1CCN(c2ccc(-c3cccc(C(F)(F)F)c3)cc2)CC1", "melting point": "129 to 130 °C"}
{"molecule": "CNC(=O)COC(=O)N1CCN(c2ccc(CC(C)C)nc2)CC1", "melting point": "87 to 89 °C"}
{"molecule": "Cc1cc(F)cc2c1OCCC2", "melting point": "189 to 190 °C"}

Which melting point value is on record for `CNC(=O)COC(=O)N1CCN(c2ccc(-c3cccc(C(F)(F)F)c3)nc2)CC1` ?
146 to 150 °C

What melting point value was documented for this molecule, `CNC(=O)COC(=O)N1CCN(c2ccc(-c3ccc(OC(F)(F)F)cc3)cn2)CC1` ?
188 to 190 °C

Endpoint output: melting point of `CNC(=O)COC(=O)N1CCN(c2ccc(-c3ccc(OC(F)(F)F)cc3)cc2)CC1` . Value?
187 to 189 °C

Look at this molecule and give its reported melting point. `CNC(=O)COC(=O)N1CCN(c2ccc(-c3ccc(C(F)(F)F)cc3)cn2)CC1`
206 to 209 °C
